- Tested system: Kir3.1/Kir3.2 (Homo sapiens) (UniProt P48549+P48051)
- Measurement protocol: Activation of human GIRK1/2 expressed in HEK293 cells co-expressing rat mGlu8 by thallium flux assay relative to control
- Format: cell-based
Quick reference for Emax among some molecules
Quantity kind: Emax (%)

>>> print(df.to_string())
                                   molecule                             tested_system  obs_value
0  COc1ccc(-c2nnn(CC(=O)Nc3cc(C)nn3C3CCCCC3)n2)cc1  Kir3.1/Kir3.2 (Homo sapiens) (UniProt P48549+P48051)         90
1  O=C(Cn1nnc(-c2ccccc2)n1)Nc1cc(C2CC2)nn1C1CCCCC1  Kir3.1/Kir3.2 (Homo sapiens) (UniProt P48549+P48051)         45
2  O=C(Cn1nnc(-c2ccccc2)n1)NC1CC2CCC1C2 (stereo not drawn)  Kir3.1/Kir3.2 (Homo sapiens) (UniProt P48549+P48051)         13

* * *

- Tested system: Kir3.1/Kir3.4 (Homo sapiens) (UniProt P48549+P48544)
- Measurement protocol: Activation of human GIRK1/4 expressed in HEK293 cells co-expressing rat mGlu8 by thallium flux assay relative to control
- Type: cell-based
Quantity kind: Emax

>>> print(df.to_string())
                         compound_structure                             tested_system  quantity_kind  obs_value
0  Cc1cc(NC(=S)Cn2nnc(-c3ccccc3)n2)n(C2CCCCC2)n1  Kir3.1/Kir3.4 (Homo sapiens) (UniProt P48549+P48544)           Emax        36%
1  Cc1cc(NC(=O)Cn2nnc(-c3ccccc3F)n2)n(C2CCCCC2)n1  Kir3.1/Kir3.4 (Homo sapiens) (UniProt P48549+P48544)           Emax        60%
2  Cc1cc(NC(=O)Cn2nnc(-c3ccccc3)n2)n(C2CCOCC2)n1  Kir3.1/Kir3.4 (Homo sapiens) (UniProt P48549+P48544)           Emax       109%
3  Cc1cc(NC(=O)Cn2nnc(-c3ccc(Cl)c(C)c3)n2)n(C2CCCCC2)n1  Kir3.1/Kir3.4 (Homo sapiens) (UniProt P48549+P48544)           Emax        51%
4  Cc1cc(NC(=O)Cc2ccc(-c3ccccc3)cc2)n(C2CCCCC2)n1  Kir3.1/Kir3.4 (Homo sapiens) (UniProt P48549+P48544)           Emax        20%
5  Cc1cc(NC(=O)Cn2nnc(-c3ccccc3)n2)n(Cc2ccccc2)n1  Kir3.1/Kir3.4 (Homo sapiens) (UniProt P48549+P48544)           Emax        48%
6  COc1cccc(-c2nnn(CC(=O)Nc3cc(C)nn3C3CCCCC3)n2)c1  Kir3.1/Kir3.4 (Homo sapiens) (UniProt P48549+P48544)           Emax        40%
7  Cc1cc(NC(=O)Cn2nnc(-c3ccccc3)n2)n(CC(F)(F)F)n1  Kir3.1/Kir3.4 (Homo sapiens) (UniProt P48549+P48544)           Emax      > 97%
8  Cc1cc(NC(=O)Cn2ccc(-c3ccccc3)n2)n(C2CCCCC2)n1  Kir3.1/Kir3.4 (Homo sapiens) (UniProt P48549+P48544)           Emax        49%

* * *

Quick reference for Emax among some molecules
- Tested system: Kir3.1/Kir3.2 (Homo sapiens) (UniProt P48549+P48051)
- Measurement protocol: Activation of human GIRK1/2 expressed in HEK293 cells co-expressing rat mGlu8 by thallium flux assay relative to control
- Assay type: cell-based
Quantity kind: Emax

                                   molecule  obs_value
0  CCC(C)n1nc(C)cc1NC(=O)Cn1nnc(-c2ccccc2)n1 (stereo not given)      > 69%
1  Cc1cc(NC(=O)Cc2ncc(-c3ccccc3)o2)n(C2CCCCC2)n1        72%
2  Cc1cccc(-c2nnn(CC(=O)Nc3cc(C)nn3C3CCCCC3)n2)c1        93%
3  Cc1cc(NC(=O)Cn2nnc(-c3ccccc3)n2)n(C(C)C)n1       107%
4  Cc1cc(NC(=O)Cn2nnc(-c3cccnc3)n2)n(C2CCCCC2)n1        96%
5  Cc1cc(NC(=O)Cn2nnc(-c3ccc(C(F)(F)F)cc3)n2)n(C2CCCCC2)n1        94%
6  Cc1cc(NC(=O)Cn2nnc(-c3ccc(Cl)c(Cl)c3)n2)n(C2CCCCC2)n1        84%
7  Cc1cc(NC(=O)Cn2nnc(-c3ccccc3)n2)n(Cc2ccccc2)n1        74%
8  Cc1cc(NC(=O)Cn2nncc2-c2ccccc2)n(C2CCCCC2)n1        87%

* * *

- Tested system: Kir3.1/Kir3.2 (Homo sapiens, UniProt P48051+P48549)
- Sequence (P48549 whole entry): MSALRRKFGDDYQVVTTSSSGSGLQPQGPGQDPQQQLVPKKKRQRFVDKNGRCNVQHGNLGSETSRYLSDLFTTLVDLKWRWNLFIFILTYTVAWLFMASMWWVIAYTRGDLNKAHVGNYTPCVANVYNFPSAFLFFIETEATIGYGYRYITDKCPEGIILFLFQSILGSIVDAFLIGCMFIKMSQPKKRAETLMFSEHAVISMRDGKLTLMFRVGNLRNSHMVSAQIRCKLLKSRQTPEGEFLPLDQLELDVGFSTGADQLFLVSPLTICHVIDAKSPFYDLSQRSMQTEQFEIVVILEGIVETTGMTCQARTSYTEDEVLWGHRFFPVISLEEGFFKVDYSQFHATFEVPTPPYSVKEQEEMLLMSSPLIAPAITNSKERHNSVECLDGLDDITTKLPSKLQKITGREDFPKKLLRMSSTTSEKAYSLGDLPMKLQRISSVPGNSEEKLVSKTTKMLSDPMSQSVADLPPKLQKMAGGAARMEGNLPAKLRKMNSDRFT
- Sequence (P48051 whole entry): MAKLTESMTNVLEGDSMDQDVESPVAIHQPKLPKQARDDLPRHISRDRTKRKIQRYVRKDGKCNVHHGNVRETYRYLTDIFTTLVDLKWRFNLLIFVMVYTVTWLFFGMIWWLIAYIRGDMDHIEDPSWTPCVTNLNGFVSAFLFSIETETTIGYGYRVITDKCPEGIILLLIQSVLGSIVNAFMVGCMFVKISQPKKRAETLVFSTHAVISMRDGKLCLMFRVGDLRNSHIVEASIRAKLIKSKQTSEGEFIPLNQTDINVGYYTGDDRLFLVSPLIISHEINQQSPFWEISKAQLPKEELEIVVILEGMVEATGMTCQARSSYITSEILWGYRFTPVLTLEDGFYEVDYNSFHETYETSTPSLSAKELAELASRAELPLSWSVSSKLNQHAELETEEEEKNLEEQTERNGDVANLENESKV
- Measurement protocol: Activation of human GIRK1/2 expressed in HEK293 cells co-expressing rat mGlu8 by thallium flux assay
Quick reference for log10(EC50) among some molecules
Quantity kind: log10(EC50) (log10 of the value in nM)

>>> print(df.to_string())
                         compound_structure  obs_value
0  Cc1cc(NC(=O)Cn2cc(-c3ccccc3)nn2)n(C2CCCCC2)n1       2.06
1  Cc1cc(NC(=O)Cc2cccc(-c3ccccc3)c2)n(C2CCCCC2)n1       2.57
2  Cc1cc(NC(=O)Cc2ncc(-c3ccccc3)o2)n(C2CCCCC2)n1       2.80
3  Cc1cc(NC(=O)Cn2nnc(-c3ccc(Cl)c(C)c3)n2)n(C2CCCCC2)n1       2.85
4  Cc1cc(NC(=O)Cn2nnc(-c3ccc(F)cc3)n2)n(C2CCCCC2)n1       2.26
5  Cc1cc(NC(=O)Cn2nnc(-c3cccc(C#N)c3)n2)n(C2CCCCC2)n1       2.26
6  Cc1cc(NC(=O)Cn2nnc(-c3ccccc3)n2)n(C2CCCC2)n1       2.21
7  Cc1cc(NC(=O)Cn2nnc(-c3ccccn3)n2)n(C2CCCCC2)n1       4.16

* * *

- Measurement protocol: Clearance in mouse liver microsomes
The label is criterion met for CLhep predicted below 80 mL/min/kg and criterion not met for CLhep predicted equal to or exceeding 80 mL/min/kg.

>>> df
                         compound_structure  assigned_category
0  Cc1cc(NC(=O)Cn2nnc(-c3cccc(F)c3)n2)n(C2CCCCC2)n1  criterion not met
1  Cc1cc(NC(=O)Cn2nnc(-c3ccccc3)n2)n(CC2CCCCC2)n1  criterion not met
2  Cc1cc(NC(=O)Cn2nnc(-c3ccc(Cl)c(Cl)c3)n2)n(C2CCCCC2)n1      criterion met
3  Cc1cc(NC(=O)Cn2nncc2-c2ccccc2)n(C2CCCCC2)n1  criterion not met
4  Cc1cc(NC(=O)Cn2nnc(-c3ccccc3)n2)n(C2CCCCC2)n1  criterion not met
